- Assayed Target: Kras and SOS1 (biotin-tagged human Kras loaded with GDP, His-tagged human SOS1) (Homo sapiens, UniProt P01116, G12D)
- Construct: made in house; host or cells: E. coli (stated for Kras only)
- Sequence (P01116 1-188 isoform P01116-2 G12D): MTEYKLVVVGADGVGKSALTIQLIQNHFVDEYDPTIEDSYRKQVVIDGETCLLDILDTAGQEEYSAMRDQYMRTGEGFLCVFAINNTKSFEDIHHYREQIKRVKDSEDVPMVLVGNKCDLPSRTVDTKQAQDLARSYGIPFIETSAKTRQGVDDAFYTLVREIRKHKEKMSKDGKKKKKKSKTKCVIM
- Assay Overview: Protein-protein interaction inhibition between Kras and SOS1 (KrasGl2D-SOS PPI) using AlphaScreen
- Type: binding
- Condition Notes: AlphaScreen; biotin-tagged human Kras loaded with GDP, His-tagged human SOS1; read-out: KRAS G12D-SOS PPI IC50
Starred links: 1 amine or outer side, 2 acyl side, 3 side chain; linkers in the order of their positions; H or OH if unused. Positions of bridges follow the written chain, without caps; N, C: chain ends. Non-standard residues stand in square brackets, D forms with d. Residues, ends and D or L forms follow the SMILES beside them. *: point of attachment. hPhe(3,5-F2-4-CF3) = N[C@@H](CCc1cc(F)c(C(F)(F)F)c(F)c1)C(=O)O; hPhe(3-Cl-4-CF3) = N[C@@H](CCc1ccc(C(F)(F)F)c(Cl)c1)C(=O)O; X19 = CC(C)(C)Oc1cc(CC[C@H](N[*:1])C(=O)[*:2])cc(Cl)c1Cl; NMePhe(4-CF3) = CN[C@@H](Cc1ccc(C(F)(F)F)cc1)C(=O)O; NMePhe(4-Br) = CN[C@@H](Cc1ccc(Br)cc1)C(=O)O; NMePhe(4-Me) = CN[C@@H](Cc1ccc(C)cc1)C(=O)O; NMeAla(cPent) = CN[C@@H](CC1CCCC1)C(=O)O; NMeCha = CN[C@@H](CC1CCCCC1)C(=O)O; Hyp = O=C(O)[C@@H]1C[C@@H](O)CN1; NMeChg = CN[C@H](C(=O)O)C1CCCCC1; NMeI = CC[C@H](C)[C@H](NC)C(=O)O; NMeD = CN[C@@H](CC(=O)O)C(=O)O; NMeL = CN[C@@H](CC(C)C)C(=O)O; NMeAbu = CC[C@H](NC)C(=O)O; Morpholide = C1CN(*)CCO1; NMeA = CN[C@@H](C)C(=O)O; Piperidide = C1CCN(*)CC1; Pyrrolidide = C1CCN(*)C1; Ac5c = NC1(C(=O)O)CCCC1; Aze = O=C(O)[C@@H]1CCN1; Sar = CNCC(=O)O
Exercise: state measured pIC50 for each of the molecules provided.
One number for each entry, as −log10 of the molar value.

1) CCO[C@@H]1C[C@H]2C(=O)NC3(CCCC3)C(=O)N(C)[C@@H]([C@@H](C)CC)C(=O)N(C)[C@H](C(=O)N3CCOCC3)CC(=O)N(C)[C@@H](CC(C)C)C(=O)N[C@@H]([C@@H](C)CC)C(=O)N(C)[C@@H](C)C(=O)N3CC[C@H]3C(=O)N(C)[C@@H](Cc3ccc(C(F)(F)F)cc3)C(=O)N(C)CC(=O)N[C@@H](CCc3cc(F)c(C(F)(F)F)c(F)c3)C(=O)N2C1 [Compound 1261] ([NMeL]I[NMeA][Aze][NMePhe(4-CF3)][Sar][hPhe(3,5-F2-4-CF3)][Hyp](Et)[Ac5c][NMeI][NMeD]-Morpholide; lactam N-11) = 9.19
2) CC[C@H](C)[C@@H]1NC(=O)[C@H](CC)N(C)C(=O)C[C@@H](C(=O)N2CCCC2)N(C)C(=O)[C@H](C2CCCCC2)N(C)C(=O)C2(CCCC2)NC(=O)[C@@H]2CCCN2C(=O)[C@H](CCc2ccc(C(F)(F)F)c(Cl)c2)NC(=O)CN(C)C(=O)[C@H](CC2CCCC2)N(C)C(=O)CN(C)C(=O)CN(C)C1=O [Compound 1931] ([NMeAbu]I[Sar][Sar][NMeAla(cPent)][Sar][hPhe(3-Cl-4-CF3)]P[Ac5c][NMeChg][NMeD]-Pyrrolidide; lactam N-11) = 9.25
3) CC[C@H](C)[C@@H]1NC(=O)[C@H](CC(C)C)N(C)C(=O)C[C@@H](C(=O)N(C)C)N(C)C(=O)[C@H]([C@@H](C)CC)N(C)C(=O)C2(CCCC2)NC(=O)[C@H](Cc2ccc(Br)cc2)N(C)C(=O)[C@H](CCc2ccc(C(F)(F)F)c(Cl)c2)NC(=O)CN(C)C(=O)[C@H](Cc2ccc(C)cc2)N(C)C(=O)[C@@H]2CCN2C(=O)[C@H](C)N(C)C1=O [Compound 1964] ([NMeL]I[NMeA][Aze][NMePhe(4-Me)][Sar][hPhe(3-Cl-4-CF3)][NMePhe(4-Br)][Ac5c][NMeI][NMeD]-NMe2; lactam N-11) = 7.44

# ---- query molecule ----
Sure, the documented pIC50 for CC[C@H](C)[C@@H]1NC(=O)[C@H](C)N(C)C(=O)C[C@@H](C(=O)N2CCCCC2)N(C)C(=O)[C@H](C2CCCCC2)N(C)C(=O)C2(CCCC2)NC(=O)[C@@H]2CCCN2C(=O)[C@H](CCc2cc(Cl)c(Cl)c(OC(C)(C)C)c2)NC(=O)CN(C)C(=O)[C@H](CC2CCCCC2)N(C)C(=O)CN(C)C(=O)CN(C)C1=O [Compound 2082] ([NMeA]I[Sar][Sar][NMeCha][Sar][X19]P[Ac5c][NMeChg][NMeD]-Piperidide; lactam N-11) is 7.39

###

- Assayed Target: Kras and SOS1 (biotin-tagged human Kras loaded with GDP, His-tagged human SOS1) (Homo sapiens, UniProt P01116, G12D)
- Construct: made in house; host or cells: E. coli (stated for Kras only)
- Assay Overview: Protein-protein interaction inhibition between Kras and SOS1 (KrasGl2D-SOS PPI) using AlphaScreen
- Format: binding
- Condition Notes: AlphaScreen; biotin-tagged human Kras loaded with GDP, His-tagged human SOS1; read-out: KRAS G12D-SOS PPI IC50
Starred links: 1 amine or outer side, 2 acyl side, 3 side chain; linkers in the order of their positions; H or OH if unused. Positions of bridges follow the written chain, without caps; N, C: chain ends. Non-standard residues stand in square brackets, D forms with d. Residues, ends and D or L forms follow the SMILES beside them. *: point of attachment. hPhe(3-Cl-4-CF3) = N[C@@H](CCc1ccc(C(F)(F)F)c(Cl)c1)C(=O)O; hPhe(4-CF3) = N[C@@H](CCc1ccc(C(F)(F)F)cc1)C(=O)O; X39 = COc1ccc(C[C@@H](C(=O)[*:2])N(C)[*:1])cn1; X5 = CC(C)(C)NC(=O)COC[C@H](CC(=O)[*:1])N[*:2]; NMePhe(4-Cl) = CN[C@@H](Cc1ccc(Cl)cc1)C(=O)O; NMeGly(cPent) = CN[C@H](C(=O)O)C1CCCC1; NMe4Pal = CN[C@@H](Cc1ccncc1)C(=O)O; NMeCha = CN[C@@H](CC1CCCCC1)C(=O)O; NMeChg = CN[C@H](C(=O)O)C1CCCCC1; NMeF = CN[C@@H](Cc1ccccc1)C(=O)O; NMeβAla = CN(CCC(=O)[*:2])[*:1]; NMeD = CN[C@@H](CC(=O)O)C(=O)O; NMeL = CN[C@@H](CC(C)C)C(=O)O; NMeV = CN[C@H](C(=O)O)C(C)C; NMeA = CN[C@@H](C)C(=O)O; Piperidide = C1CCN(*)CC1; Pyrrolidide = C1CCN(*)C1; Ac5c = NC1(C(=O)O)CCCC1; Aze = O=C(O)[C@@H]1CCN1; Sar = CNCC(=O)O
Measurement Kind: pIC50
Give bare numbers, as −log10 of the molar value.

Example compounds with recorded pIC50:
1) CC[C@H](C)[C@@H]1NC(=O)[C@H](C)N(C)C(=O)C[C@@H](C(=O)N2CCCC2)NC(=O)[C@H](C(C)C)N(C)C(=O)[C@H](Cc2ccccc2)N(C)C(=O)[C@H](CC(C)C)N(C)C(=O)[C@H](CCc2ccc(C(F)(F)F)cc2)NC(=O)CN(C)C(=O)[C@H](Cc2ccc(Cl)cc2)N(C)C(=O)CN(C)C(=O)CN(C)C1=O [Compound 152] ([NMeA]I[Sar][Sar][NMePhe(4-Cl)][Sar][hPhe(4-CF3)][NMeL][NMeF][NMeV]D-Pyrrolidide; lactam N-11) = 6.96
2) CC[C@H](C)[C@@H]1NC(=O)[C@H](CC(C)C)N(C)C(=O)C[C@@H](COCC(=O)NC(C)(C)C)NC(=O)[C@H](C(C)C)N(C)C(=O)C2(CCCC2)NC(=O)[C@@H]2CCCN2C(=O)[C@H](CCc2ccc(C(F)(F)F)c(Cl)c2)NC(=O)CN(C)C(=O)[C@H](CC2CCCCC2)N(C)C(=O)CN(C)C(=O)CN(C)C1=O [Compound 955] ([NMeL]I[Sar][Sar][NMeCha][Sar][hPhe(3-Cl-4-CF3)]P[Ac5c][NMeV]; linker N-C via X5) = 7.59
3) CC[C@H](C)[C@@H]1NC(=O)[C@H](CC(C)C)N(C)C(=O)C[C@@H](C(=O)N2CCCCC2)N(C)C(=O)[C@H](C2CCCCC2)N(C)C(=O)C2(CCCC2)NC(=O)[C@H](Cc2ccncc2)N(C)C(=O)[C@H](CCc2ccc(C(F)(F)F)c(Cl)c2)NC(=O)CN(C)C(=O)[C@H](CC2CCCCC2)N(C)C(=O)[C@@H]2CCN2C(=O)[C@H](C)N(C)C1=O [Compound 656] ([NMeL]I[NMeA][Aze][NMeCha][Sar][hPhe(3-Cl-4-CF3)][NMe4Pal][Ac5c][NMeChg][NMeD]-Piperidide; lactam N-11) = 7.77

Please give pIC50 for each item listed below.
1. CC[C@H](C)[C@@H]1NC(=O)CCN(C)C(=O)CN(C)C(=O)[C@H](C2CCCC2)N(C)C(=O)C2(CCCC2)NC(=O)[C@@H]2CCCN2C(=O)[C@H](CCc2ccc(C(F)(F)F)c(Cl)c2)NC(=O)CN(C)C(=O)[C@H](CC2CCCCC2)N(C)C(=O)CN(C)C(=O)CN(C)C1=O [Compound 369] (cyclo([Ac5c][NMeGly(cPent)][Sar][NMeβAla]I[Sar][Sar][NMeCha][Sar][hPhe(3-Cl-4-CF3)]P))
2. CC[C@H](C)[C@@H]1NC(=O)[C@H](CC(C)C)N(C)C(=O)C[C@@H](C(=O)N2CCCCC2)N(C)C(=O)[C@H](C2CCCCC2)N(C)C(=O)C2(CCCC2)NC(=O)[C@H](Cc2ccc(OC)nc2)N(C)C(=O)[C@H](CCc2ccc(C(F)(F)F)c(Cl)c2)NC(=O)CN(C)C(=O)[C@H](CC2CCCCC2)N(C)C(=O)[C@@H]2CCN2C(=O)CN(C)C1=O [Compound 614] ([NMeL]I[Sar][Aze][NMeCha][Sar][hPhe(3-Cl-4-CF3)][X39][Ac5c][NMeChg][NMeD]-Piperidide; lactam N-11)

6.46
7.62
